Recorded measurements of phosphorylation enrichment, one per entry
System: c-Abl (mouse)
Experiment: phosphorylation enrichment, bacterial display (enrichment ratio); higher = better substrate or ligand; peptides without Tyr show the background

Sequence Content | phosphorylation enrichment
TQPSPYAVFRF [RPGRIP1_Y823_YF] | 24.8
NFHRGYHLQVL [CD200R1L_Y138] | 0.787

Q) Which phosphorylation enrichment reading was recorded for the sequence EKEQNYDLTEV [ECD_Y448] ?
A) 0.737

====

Biological target: EPHB1 (UniProt P54762)
Sequence (P54762 whole entry, looked up): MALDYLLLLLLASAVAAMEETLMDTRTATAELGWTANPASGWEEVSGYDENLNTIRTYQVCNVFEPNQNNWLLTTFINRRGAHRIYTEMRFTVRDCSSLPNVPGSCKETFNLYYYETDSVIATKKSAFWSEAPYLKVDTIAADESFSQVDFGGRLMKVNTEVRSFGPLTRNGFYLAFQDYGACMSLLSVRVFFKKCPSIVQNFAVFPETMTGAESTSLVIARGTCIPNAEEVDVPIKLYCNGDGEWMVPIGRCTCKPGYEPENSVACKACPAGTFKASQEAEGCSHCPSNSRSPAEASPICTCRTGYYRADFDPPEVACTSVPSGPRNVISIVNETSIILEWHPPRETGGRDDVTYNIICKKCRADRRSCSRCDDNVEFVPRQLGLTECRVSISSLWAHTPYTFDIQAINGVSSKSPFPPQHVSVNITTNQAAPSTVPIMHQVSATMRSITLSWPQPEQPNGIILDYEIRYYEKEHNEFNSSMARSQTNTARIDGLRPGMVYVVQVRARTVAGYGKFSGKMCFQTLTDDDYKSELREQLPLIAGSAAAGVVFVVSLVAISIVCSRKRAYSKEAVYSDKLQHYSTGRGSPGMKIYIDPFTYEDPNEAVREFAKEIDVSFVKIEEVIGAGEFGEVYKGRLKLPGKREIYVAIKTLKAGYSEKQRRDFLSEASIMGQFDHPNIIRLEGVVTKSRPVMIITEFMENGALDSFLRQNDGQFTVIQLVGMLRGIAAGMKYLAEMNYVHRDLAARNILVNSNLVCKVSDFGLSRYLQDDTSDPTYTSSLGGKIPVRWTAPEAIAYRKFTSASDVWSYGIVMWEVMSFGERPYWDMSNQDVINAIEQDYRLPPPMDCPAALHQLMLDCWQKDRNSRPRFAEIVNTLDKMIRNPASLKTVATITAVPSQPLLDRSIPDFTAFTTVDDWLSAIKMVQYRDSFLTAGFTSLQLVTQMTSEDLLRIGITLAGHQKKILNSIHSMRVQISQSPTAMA
Assay: phosphorylation enrichment, bacterial display (enrichment ratio); higher = better substrate or ligand; peptides without Tyr show the background
Item-by-item account of phosphorylation enrichment
Could you keep your reply to the number by itself?

Q) What does the record list as phosphorylation enrichment for GEFHVYRHLRW [PRKRIP1_Y82_R87W] ?
A) 0.499

Q) # query: phosphorylation enrichment of entry TEQDPYNNIVR [MMUT_Y364]
A) 0.5

Q) Sample NQILPYIKELV [PPP2R1B_Y341] — what was its phosphorylation enrichment?
A) 0.509

====

Molecular target: FGFR3 (UniProt P22607)
Sequence (P22607 whole entry, looked up): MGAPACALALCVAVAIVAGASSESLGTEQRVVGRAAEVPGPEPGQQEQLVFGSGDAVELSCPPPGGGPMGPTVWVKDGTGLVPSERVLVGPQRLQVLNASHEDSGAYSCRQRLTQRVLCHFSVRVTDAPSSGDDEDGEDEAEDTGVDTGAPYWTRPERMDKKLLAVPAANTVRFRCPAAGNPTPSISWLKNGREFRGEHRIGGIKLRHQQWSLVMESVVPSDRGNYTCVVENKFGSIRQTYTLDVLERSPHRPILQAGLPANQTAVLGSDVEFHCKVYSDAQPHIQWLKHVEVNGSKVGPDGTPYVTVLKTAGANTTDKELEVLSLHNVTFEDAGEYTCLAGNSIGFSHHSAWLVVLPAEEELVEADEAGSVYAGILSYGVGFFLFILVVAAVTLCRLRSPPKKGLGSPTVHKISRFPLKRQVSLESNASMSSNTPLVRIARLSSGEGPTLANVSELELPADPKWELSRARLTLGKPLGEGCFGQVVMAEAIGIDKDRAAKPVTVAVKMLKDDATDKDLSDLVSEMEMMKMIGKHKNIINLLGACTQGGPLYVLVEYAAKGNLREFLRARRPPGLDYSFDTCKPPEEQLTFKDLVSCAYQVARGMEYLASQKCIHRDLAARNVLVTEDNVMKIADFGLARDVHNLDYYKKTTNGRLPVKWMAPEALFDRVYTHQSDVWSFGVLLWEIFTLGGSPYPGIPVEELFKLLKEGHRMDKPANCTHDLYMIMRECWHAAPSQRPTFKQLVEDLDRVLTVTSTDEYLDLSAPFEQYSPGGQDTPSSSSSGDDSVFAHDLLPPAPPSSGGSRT
Assay: phosphorylation enrichment, bacterial display (enrichment ratio); higher = better substrate or ligand; peptides without Tyr show the background
Listing of entries alongside the reported phosphorylation enrichment.
Reply briefly: the number, and no unit.

Sequence Content | Assayed System | phosphorylation enrichment
GVASDYKCVDP [VPS13B_Y1991_I1994V] | FGFR3 (UniProt P22607) | 0.821
TTKGSYSLFVR [HCK_Y180_S183Y_YF] | FGFR3 (UniProt P22607) | 0.57
GLCSFYETSKM [MAGED2_Y449_R446C_YF] | FGFR3 (UniProt P22607) | 0.931
WGLRSYYETSK [MAGED2_Y448] | FGFR3 (UniProt P22607) | 0.733
LLGFLYFFVCS [SLC34A2_Y109] | FGFR3 (UniProt P22607) | 1.81

Q) What does the record list as phosphorylation enrichment for VFFGSYSRPFG [NKAP_Y104_YF] ?
A) 0.65

Q) Given the sequence PSARTYCYKQE [KLHDC9_Y175] , what is its reported phosphorylation enrichment?
A) 0.907

Q) Which phosphorylation enrichment reading was recorded for the sequence PEAALYGRFTI [FYN_Y440] ?
A) 0.645

====

System: Fer (mouse)
Test: phosphorylation enrichment, bacterial display (enrichment ratio); higher = better substrate or ligand; peptides without Tyr show the background
Readout Kind: phosphorylation enrichment
The answer should be written as a number, with no unit following it.

Examples with their reported phosphorylation enrichment follow.
Sequence Content | Assayed System | phosphorylation enrichment
REQREYLDQLN [CCDC88B_Y1277] | Fer (mouse) | 0.532
GSRGKYSSGFR [ATM_Y332] | Fer (mouse) | 0.793

Query sequence follows.
Q) What measured phosphorylation enrichment goes with AMGAVYQAAAL [HYOU1_Y421] ?
A) 1.63

====

Molecular target: c-Src SH2;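 note: peptide library displayed on the E. coli surface as eCPX fusions, selected cells deep-sequenced, score is each peptide's frequency after selection divided by its frequency in the input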
Assay: SH2 binding enrichment of the phosphorylated peptide, bacterial display (enrichment ratio); higher = better substrate or ligand; peptides without Tyr show the background
Please enter 1 (yes) where SH2 binding enrichment is greater than or equal to 1, and 0 (no) where it is lower.

Recorded results for 3 sequences are shown here.
Sequence Content | Assayed System | Group
KTVQDYLEKFF [MMP8_Y36_YF] | c-Src SH2 | 0 (no)
HGEAFYSEVKP [PAK5_Y182_YF] | c-Src SH2 | 1 (yes)
SYVVRYNQPRV [GRIN2D_Y736_M733V] | c-Src SH2 | 1 (yes)

Q) Quick check: does ESSKAYERALS [TTC37_Y1074] have SH2 binding enrichment greater than or equal to 1?
A) 0 (no)

Q) Does SH2 binding enrichment meet or surpass 1 for KGKLIYLLGDS [NXPE1_Y350] ?
A) 1 (yes)

Q) For this sequence, is measured SH2 binding enrichment 1 or higher? TQPSPYAVFRF [RPGRIP1_Y823_YF]
A) 0 (no)

Q) Please check the record PPAPRYHHLAV [LZTR1_Y119_S122L] and state if its SH2 binding enrichment is at or above 1.
A) 1 (yes)

Q) Entry KFDLMYAKWAF [TUBA3E_Y399] : is its SH2 binding enrichment no less than 1?
A) 1 (yes)

Q) Reported SH2 binding enrichment reaches at least 1 for GFVEDYRPPFY [ACVRL1_Y421_I417F] ?
A) 0 (no)

Q) Determine whether measured SH2 binding enrichment meets or exceeds 1 for QDDFSYPSRQM [LDLR_Y847_G844D_YF]
A) 0 (no)
